compounds and their reported Bliss excess
Tested on: OC-314 (Ovarian Carcinoma);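 further: after 72 h of two-drug dosing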
Test summary: Bliss excess, mean over the matrix (fraction); higher = more synergy
// return a plain number; no unit text

>>> val("CC1(C)CCC(CN2CCN(c3ccc(C(=O)NS(=O)(=O)c4ccc(NCC5CCOCC5)c([N+](=O)[O-])c4)c(Oc4cnc5[nH]ccc5c4)c3)CC2)=C(c2ccc(Cl)cc2)C1 [Venetoclax] + CS(=O)(=O)CCNCc1ccc(-c2ccc3ncnc(Nc4ccc(OCc5cccc(F)c5)c(Cl)c4)c3c2)o1 [Lapatinib] (first compound max 1 µM, 7x7, partner max 10 µM)")
0.0051

Next, consider the following compound.
Exam item: Report Bliss excess from OC-314 (Ovarian Carcinoma) testing of Cc1c2c(nn1C)CSCc1cc(n(C)n1)CSc1cc(c3ccccc3c1)OCCCc1c(C(=O)O)n(C)c3c-2c(Cl)ccc13 [AZD5991] + Cc1cc2ncnn2cc1Nc1ncc2c(n1)n(C1CCOCC1)c(=O)n2C [AZD7648] (first compound max 1 µM, 7x7, partner max 10 µM)
Marked response: 0.0063

Source: the supplement of paper PMC11061612
